The values you see were collected from ChEMBL document CHEMBL1649165.

# System: Neurospora sitophila
# MEASUREMENT_NOTES: Antimicrobial activity against Chrysonilia sitophila by broth microdilution method
# Format: functional
*1 amine or outer side, *2 acyl side, *3 side chain or, on linkers, in order; H or OH if unused. Where a SMILES comes first, the peptide text is derived from it. Bridges are numbered along the chain shown (N, C = ends). [ ]: non-standard residue; d: D form. The star is where a group is joined. hTyr(3S-OH,4S-OH,3'-OSO3H) = N[C@H](C(=O)O)[C@H](O)[C@@H](O)c1ccc(O)c(OS(=O)(=O)O)c1; pTerphenylCO(4''-OnC5H11) = CCCCCOc1ccc(-c2ccc(-c3ccc(C(=O)*)cc3)cc2)cc1; Orn(4R-OH,5R-OH) = O=C([C@H](C[C@@H](O)[C@@H](O)N[*:3])N[*:1])[*:2]; hTyr(3S-OH,4S-OH) = N[C@H](C(=O)O)[C@H](O)[C@@H](O)c1ccc(O)cc1; Pro(3S-OH,4S-Me) = C[C@H]1CN[C@H](C(=O)O)[C@H]1O; X1 = CCCCCOc1ccc(-c2cc(-c3ccc(C(=O)*)cc3)no2)cc1; Gln(3R-OH) = NC(=O)C[C@@H](O)[C@H](N)C(=O)O; Hyp = O=C(O)[C@@H]1C[C@@H](O)CN1
MEASUREMENT_NAME: MIC50

A selection of reference data follows.
- MOLECULE: "CCCCCOc1ccc(-c2ccc(-c3ccc(C(=O)N[C@H]4C[C@@H](O)[C@@H](O)NC(=O)[C@@H]5[C@@H](O)[C@@H](C)CN5C(=O)[C@H]([C@@H](C)O)NC(=O)[C@H]([C@H](O)[C@@H](O)c5ccc(O)cc5)NC(=O)[C@@H]5C[C@@H](O)CN5C(=O)[C@H]([C@@H](C)O)NC4=O)cc3)cc2)cc1 [ANIDULAFUNGIN] ({pTerphenylCO(4''-OnC5H11)}-[Orn(4R-OH,5R-OH)]T[Hyp][hTyr(3S-OH,4S-OH)]T[Pro(3S-OH,4S-Me)]; lactam 1-C)"
  MIC50: "> 16 µg/mL"
- MOLECULE: "CCCCCOc1ccc(-c2cc(-c3ccc(C(=O)N[C@H]4C[C@@H](O)[C@@H](O)NC(=O)[C@@H]5[C@@H](O)[C@@H](C)CN5C(=O)[C@H]([C@H](O)CC(N)=O)NC(=O)[C@H]([C@H](O)[C@@H](O)c5ccc(O)c(OS(=O)(=O)O)c5)NC(=O)[C@@H]5C[C@@H](O)CN5C(=O)[C@H]([C@@H](C)O)NC4=O)cc3)no2)cc1 [MICAFUNGIN] (X1-[Orn(4R-OH,5R-OH)]T[Hyp][hTyr(3S-OH,4S-OH,3'-OSO3H)][Gln(3R-OH)][Pro(3S-OH,4S-Me)]; lactam 1-C)"
  MIC50: "> 16 µg/mL"

Now for another entry.
Value lookup for MIC50; key = CCC(C)n1ncn(-c2ccc(N3CCN(c4ccc(OCC5COC(Cn6cncn6)(c6ccc(Cl)cc6Cl)O5)cc4)CC3)cc2)c1=O (stereo not drawn)
> 8 µg/mL

* * *

# System: Pichia kudriavzevii
# MEASUREMENT_NOTES: Antimicrobial activity against Candida krusei by broth microdilution method
# Assay type: functional
*1 amine or outer side, *2 acyl side, *3 side chain or, on linkers, in order; H or OH if unused. Where a SMILES comes first, the peptide text is derived from it. Bridges are numbered along the chain shown (N, C = ends). [ ]: non-standard residue; d: D form. The star is where a group is joined. hTyr(3S-OH,4S-OH,3'-OSO3H) = N[C@H](C(=O)O)[C@H](O)[C@@H](O)c1ccc(O)c(OS(=O)(=O)O)c1; Orn(4R-OH,5R-OH) = O=C([C@H](C[C@@H](O)[C@@H](O)N[*:3])N[*:1])[*:2]; Pro(3S-OH,4S-Me) = C[C@H]1CN[C@H](C(=O)O)[C@H]1O; X1 = CCCCCOc1ccc(-c2cc(-c3ccc(C(=O)*)cc3)no2)cc1; Gln(3R-OH) = NC(=O)C[C@@H](O)[C@H](N)C(=O)O; Hyp = O=C(O)[C@@H]1C[C@@H](O)CN1
MEASUREMENT_NAME: MIC50 (µg/mL)
Answers are plain numbers, in µg/mL.

A selection of reference data follows.
- COMPOUND: "C[C@@H](c1ncncc1F)[C@](O)(Cn1cncn1)c1ccc(F)cc1F"
  MIC50 [µg/mL]: 0.25
- COMPOUND: "CCC(C)n1ncn(-c2ccc(N3CCN(c4ccc(OCC5COC(Cn6cncn6)(c6ccc(Cl)cc6Cl)O5)cc4)CC3)cc2)c1=O (stereo unspecified)"
  MIC50 [µg/mL]: 0.25
- COMPOUND: "C[C@@H]1[C@H](O)[C@@H](C)/C=C/C=C/C=C/C=C/C=C/C=C/C=C/[C@H](O[C@@H]2O[C@H](C)[C@@H](O)[C@H](N)[C@@H]2O)C[C@@H]2O[C@](O)(C[C@@H](O)C[C@@H](O)[C@H](O)CC[C@@H](O)C[C@@H](O)CC(=O)O[C@H]1C)C[C@H](O)[C@H]2C(=O)O"
  MIC50 [µg/mL]: 0.5
- COMPOUND: "CCCCCOc1ccc(-c2cc(-c3ccc(C(=O)N[C@H]4C[C@@H](O)[C@@H](O)NC(=O)[C@@H]5[C@@H](O)[C@@H](C)CN5C(=O)[C@H]([C@H](O)CC(N)=O)NC(=O)[C@H]([C@H](O)[C@@H](O)c5ccc(O)c(OS(=O)(=O)O)c5)NC(=O)[C@@H]5C[C@@H](O)CN5C(=O)[C@H]([C@@H](C)O)NC4=O)cc3)no2)cc1 [MICAFUNGIN] (X1-[Orn(4R-OH,5R-OH)]T[Hyp][hTyr(3S-OH,4S-OH,3'-OSO3H)][Gln(3R-OH)][Pro(3S-OH,4S-Me)]; lactam 1-C)"
  MIC50 [µg/mL]: 0.03
- COMPOUND: "CC[C@H](C)C[C@H](C)CCCCCCCCC(=O)N[C@H]1C[C@@H](O)[C@@H](NCCN)NC(=O)[C@@H]2[C@@H](O)CCN2C(=O)[C@H]([C@H](O)CCN)NC(=O)[C@H]([C@H](O)[C@@H](O)c2ccc(O)cc2)NC(=O)[C@@H]2C[C@@H](O)CN2C(=O)[C@H]([C@@H](C)O)NC1=O"
  MIC50 [µg/mL]: 0.25

Item "Nc1nc(=O)[nH]cc1F" with Pichia kudriavzevii - MIC50?
4
